B1: LPCAT4 (parent)
chain: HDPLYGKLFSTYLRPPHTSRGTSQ

Variants of: B1
Test: protein stability index of a GFP-peptide fusion (GPS, HEK-293T) (PSI 1-6); higher = more stable;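 also: lentivirally expressed fusions sorted by FACS into six bins by GFP to DsRed ratio, PSI derived from sequencing read proportions per bin multiplied by bin number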
Details: c terminus: a fixed tail appended
Collected protein stability index values appear next to each entry.
Lab note: record the figure alone, no unit after it.

sequencevariant=Y12T val=3.95
sequencevariant=S10W val=2.44
sequencevariant=K7G val=3.25
sequencevariant=P3L val=2.25

From here, focus on the item given below.
protein stability index recorded for this variant, `S19R` , is 2.74
